Hi there, I'd appreciate the recorded IC50 for every entry that follows.
Protocol Notes: Inhibition of hydrolysis of nitrocefin after 5 min pre-incubation with TEM-1 beta-lactamase (class 1)
Kindly answer with a numeric value in µM, unit omitted.

Lookup: State the recorded IC50 for this entry: `COC1=C(C(=O)OCc2ccc([N+](=O)[O-])cc2)N2C[C@@H](CC2=O)C1`
Found: 54

Lookup: # lookup: IC50 of COC1=CC2CC(=O)N(C2)C1C(=O)OCc1ccc([N+](=O)[O-])cc1 (centres undefined)
Found: 45

Lookup: // IC50 lookup, key: COC1=C[C@@H]2CC(=O)N(C2)C1C(=O)O (some centres undefined)
Found: 280

---

Protocol Notes: Antibacterial activity expressed as binding to PBP 2 of Pseudomonas aeruginosa
Parameter Measured: IC50 (µM)
Just the number please, in µM, no unit attached.

Lookup: What measured IC50 goes with `CC[C@@H]1C(=O)N2C[C@@H]1CC(OC)=C2C(=O)O` ?
Found: 50

---

Protocol Notes: Antibacterial activity expressed as binding to PBP 4 of Pseudomonas aeruginosa
Parameter Measured: pIC50
In plain terms, pIC50 is the concentration in mol/L turned into minus its base-10 logarithm.

Lookup: Quick one: pIC50 for `CC[C@@H]1C(=O)N2C[C@@H]1CC(OC)=C2C(=O)O` ?
Found: 5.30

---

Protocol Notes: Half life at a pH of 9 and temperature 37 degree
Format: ADME
Assay Context: pH 9
Exercise: for every item that follows, state its recorded half-life.
Only the number, expressed in min, is required.

Lookup: Item under review: COC1=C[C@@H]2CC(=O)N(C2)C1C(=O)O (stereo partly specified) . Reported half-life?
Found: 14

Lookup: Which half-life value is on record for CC[C@@H]1C(=O)N2C[C@@H]1C=C(OC)C2C(=O)OCc1ccc([N+](=O)[O-])cc1 (stereo partly specified) ?
Found: 55

Lookup: Consider the compound shown here: `COC1=C(C(=O)OCc2ccc([N+](=O)[O-])cc2)N2C[C@@H](CC2=O)C1` What is its recorded half-life?
Found: 6

Lookup: Quick one: half-life for `CC[C@@H]1C(=O)N2C[C@@H]1CC(OC)=C2C(=O)O` ?
Found: 25

Lookup: Give its half-life value. Item: O=C(O)[C@H]1/C(=C/CO)O[C@@H]2CC(=O)N21 [CLAVULANIC ACID]
Found: 120

Lookup: Which half-life is listed for `CC[C@@H]1C(=O)N2C[C@@H]1CC(OC)=C2C(=O)OCc1ccc([N+](=O)[O-])cc1` ?
Found: 42

---

Protocol Notes: Antibacterial activity expressed as binding to PBP 3 of Pseudomonas aeruginosa
Parameter Measured: pIC50
Please report pIC50 as the negative decimal logarithm of the molar concentration, giving only the number.

Lookup: Which pIC50 value is on record for `CC[C@@H]1C(=O)N2C[C@@H]1CC(OC)=C2C(=O)O` ?
Found: 5.30

---

Protocol Notes: Time dependent inhibition of hydrolysis of nitrocefin after 5 min pre-incubation with TEM-1 beta-lactamase (class 1)
I'd be grateful if you could share measured pIC50 for these entries.
Entry type: numeric. Quantity: pIC50, the -log10 of concentration in molar units.

Lookup: What does the record list as pIC50 for `CC[C@@H]1C(=O)N2C[C@@H]1CC(OC)=C2C(=O)O` ?
Found: 3.15

Lookup: pIC50 for `O=C(O)[C@H]1/C(=C/CO)O[C@@H]2CC(=O)N21` ?
Found: 7.19

Lookup: // query pIC50 value for entry CC[C@@H]1C(=O)N2C[C@@H]1C=C(OC)C2C(=O)OCc1ccc([N+](=O)[O-])cc1 (stereo partly drawn)
Found: 3.38
